Origin of measurements: PubChem BioAssay (NCI)

Assay: NCI Yeast Anticancer Drug Screen. Data for the cln2 rad14 strain (AID 165);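 also: 0% = growth equal to vehicle treated cultures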
Settings: S. cerevisiae cln2 rad14 strain, at 50.0 µM (retest, dose inferred, filed as 5.0), stronger effect = higher value
Compounds without any hit were thinned out: in the full panel of roughly 79,000, 15% have a hit.
outcome.measure: growth inhibition (%)
Numeric answer only, unit % assumed.

{"compound": "O=S1(=O)C(C(O)(c2ccccc2)c2ccccc2)CCCN1c1ccccc1 (centres undefined)", "growth inhibition (%)": -19}
{"compound": "CCOc1ccc2nc(C)cc(C)c2c1", "growth inhibition (%)": 2}
{"compound": "CC1CC(OC(=O)Nc2ccccc2)CC(C)(C)C1 (centres undefined)", "growth inhibition (%)": 81}
{"compound": "c1ccc2c(c1)oc1cc3ccncc3cc12", "growth inhibition (%)": 89}
{"compound": "Cc1ccc(S(=O)(=O)NC(CCC(=O)Nc2ccccc2)C(=O)O)cc1 (centres undefined)", "growth inhibition (%)": -15}

Report growth inhibition for CCOC(=O)C1C(c2cccc(OC)c2O)c2cc3c(cc2OC1(C)N1CCCC1)OCO3 (centres undefined) please.
-4

Report growth inhibition for CC(C=O)Cc1ccccc1 (centres undefined) please.
-8

Report growth inhibition for O=[N+]([O-])c1ccc(CCCl)c(CCl)c1 please.
92

Report growth inhibition for COC(=O)/C(C#N)=C(/SC)N(C)C please.
7

Report growth inhibition for CC1CCC2(NC1)OC1CC3[C@@H]4CC=C5C=CCC[C@]5(C)C4CC[C@]3(C)C1C2C (some centres undefined) please.
97

Report growth inhibition for O=C1/C(=C/c2cccc(O)c2)SC(=S)N1/C=C\c1nc2ccccc2[nH]c1=O please.
-32

Report growth inhibition for c1csc(CNCc2cccs2)c1 please.
-4

Report growth inhibition for CCN(CC)CCNc1ccc2ncn3c4c(OC)ccc(=O)c4c(O)c1c23 please.
29

Report growth inhibition for Cc1cc(C)nc(/C=C/c2ccccc2)c1 please.
16

Report growth inhibition for Cc1ccc2c(c1)C(O)(c1ccccc1)C(c1ccccc1)C(c1ccccc1)O2 (centres undefined) please.
62

Report growth inhibition for CC(=O)OC(CCl)C(C)[N+](=O)[O-] (centres undefined) please.
83

Report growth inhibition for Cc1cc(Cl)ccc1N1C(=O)C(=O)C(c2nc3ccccc3o2)C(=O)C1=O please.
98

Report growth inhibition for C/C(=N\N=C(N)N)c1ccc2c(c1)Cc1cc(/C(C)=N/N=C(N)N)ccc1-2 please.
99

Report growth inhibition for O=C(CSc1cc[o+]cc1)c1cccc([N+](=O)[O-])c1 please.
53

* * *

Assay: NCI Yeast Anticancer Drug Screen. Data for the cln2 rad14 strain (AID 165);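 also: 0% = growth equal to vehicle treated cultures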
Details: S. cerevisiae cln2 rad14 strain, at 5.0 µM (retest, dose inferred, filed as 0.5), stronger effect = higher value
This is part of a sample that, as a whole, favours compounds with a hit. Of some 79,000 tested, about 15% had one in any assay.
outcome.measure: growth inhibition (%)
Numeric answer only, unit % assumed.

Solved entries:
{"compound": "O=C(CC(=O)c1ccccc1)CC(=O)c1ccccc1", "endpoint.result": 31}
{"compound": "O=C1c2cccc(NCCNCCO)c2C(=O)c2cccc(NCCNCCO)c21", "endpoint.result": 24}

Report growth inhibition for O=[N+]([O-])/C(C(Cl)=C(Cl)Cl)=C(/Cl)SCc1ccccc1 please.
99

Report growth inhibition for CCCC(CC)c1c(O)c(O)c(C(CC)CCC)c(C(CC)CCC)c1C(CC)CCC (stereo not given) please.
18

Report growth inhibition for CCCCCC(O)C(C)CO (stereo not given) please.
-7

* * *

Test: NCI Yeast Anticancer Drug Screen. Data for the cln2 rad14 strain (AID 165);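 also: 0% = growth equal to vehicle treated cultures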
Details: S. cerevisiae cln2 rad14 strain, at 50.0 µM (retest, dose inferred, filed as 5.0)
Method: Growth inhibition of yeast strains with defined genetic alterations is measured as a screen for potential anti-cancer activity. Selected strains with alterations in DNA damage repair or cell cycle control were exposed to compounds and growth inhibition was measured relative to vehicle treated controls. The strain used in this assay is cln2 rad14
Compounds without any hit were thinned out: in the full panel of roughly 79,000, 15% have a hit. Activity calls are given as the source filed them. Rule as the data show it: active = growth inhibition above about 70%; inactive = the rest.
// allowed return values: 1 = active, -1 = inactive

I would be grateful if you could indicate the recorded call for OC(c1cc(-c2ccccc2)nc2c(Cl)cc(Cl)cc12)C1CCCCN1 (stereo unspecified) .
1

I would be grateful if you could indicate the recorded call for COc1ccccc1C(=O)N(Cc1ccccc1)c1ccc(Cl)c(C(=O)OC(C)C)c1 .
-1

I would be grateful if you could indicate the recorded call for CCC[CH2][Sn]1([CH2]CCC)[O]CC([CH2][Sn]([c]2ccccc2)([c]2ccccc2)[c]2ccccc2)[O]1 (stereo unspecified) .
1

I would be grateful if you could indicate the recorded call for N#Cc1c(Cl)cc(Cl)n2c1nc1ccccc12 .
1

I would be grateful if you could indicate the recorded call for O=C1C(Cl)=C(Cl)C(=O)c2cc(Cl)c(Cl)cc21 .
1

I would be grateful if you could indicate the recorded call for CN(NC(=O)/C(=C\c1ccco1)NC(=O)c1ccccc1)c1cn[nH]c(=O)c1Cl .
-1

I would be grateful if you could indicate the recorded call for NNc1cc(C(F)(F)F)nc2ccccc12 .
-1

I would be grateful if you could indicate the recorded call for CC(C)N=C(NC(C)C)SCCCCCCSC(=NC(C)C)NC(C)C .
-1

* * *

Test: NCI Yeast Anticancer Drug Screen. Data for the mec2-1 strain (AID 157)
Details: S. cerevisiae mec2-1 strain, at 50.0 µM, stronger effect = higher value
This is part of a sample that, as a whole, favours compounds with a hit. Of some 79,000 tested, about 15% had one in any assay.
Listed next: entries and their corresponding growth inhibition.
Numeric answer only, unit % assumed.

{"compound": "Cc1cc2c(cc1C)[n+]([O-])c(-c1c(Cl)cccc1Cl)c(N)[n+]2[O-]", "measure.unit": "%", "growth inhibition": 45.2}

Report growth inhibition for c1ccc2c(c1)CCCc1cc3ccccc3nc1-2 please.
92.8

* * *

Assay: NCI Yeast Anticancer Drug Screen. Data for the cln2 rad14 strain (AID 165);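 also: 0% = growth equal to vehicle treated cultures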
Conditions: S. cerevisiae cln2 rad14 strain, at 5.0 µM (retest, dose inferred, filed as 0.5)
About 79,000 compounds went through this panel and 15% of them were active in at least one assay; those are over-represented in the sample as a whole. Calls of active or inactive are those of the source. Cut-off read from the data, not from the text of the source: active = growth inhibition above about 70%; inactive = the rest.
// allowed return values: active, inactive

Sample answers from the record:
{"molecule": "C#CCN(N=O)C(=O)NCCCC(NC(C)=O)C(=O)NCc1ccccc1 (configuration not stated)", "discrete.label": "inactive"}
{"molecule": "Cn1sc2ccccc2c1=S", "discrete.label": "inactive"}
{"molecule": "C(=N\\Nc1c2ccccc2nc2ccccc12)/c1ccc2c(c1)OCO2", "discrete.label": "inactive"}
{"molecule": "CCOC(=O)/C(C#N)=C/c1coc2cc(C)cc(C)c2c1=O", "discrete.label": "inactive"}
{"molecule": "CCCCCCCCCCCCCCCCN1CCSCC1", "discrete.label": "inactive"}

I would be grateful if you could indicate the recorded call for CCN(CC)C(=O)CCCC1CCCCC1 .
inactive

I would be grateful if you could indicate the recorded call for O=C1C(Cl)=C(Nc2ccc(S(=O)(=O)Nc3ccccn3)cc2)C(=O)c2ccccc21 .
active

I would be grateful if you could indicate the recorded call for CCN(CC)c1ccc(NC(C(=O)c2ccc(Cl)cc2)c2ccc(Cl)cc2)cc1 (configuration not stated) .
inactive

I would be grateful if you could indicate the recorded call for CC(C)C12CCC3(CCC4C(C)(C(=O)O)CCCC4(C)C3C1)C(CN)C2 (configuration not stated) .
inactive

I would be grateful if you could indicate the recorded call for O=C1C2=C(CCCC2)C(=O)c2ccccc21 .
inactive

I would be grateful if you could indicate the recorded call for CC(c1ccccc1)c1cc(C(C)(C)C)ccc1O (configuration not stated) .
inactive

I would be grateful if you could indicate the recorded call for Cc1ccc2c(c1)NC(=O)C(N=[N+]=[N-])(c1ccccc1)C2=O (configuration not stated) .
inactive

* * *

Test: NCI Yeast Anticancer Drug Screen. Data for the rad50 strain (AID 155);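 also: 0% = growth of vehicle-only cultures of the same strain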
Conditions: S. cerevisiae rad50 strain growth inhibition; at 5.0 µM (retest, dose inferred, filed as 0.5); stronger effect = higher value
This is part of a sample that, as a whole, favours compounds with a hit. Of some 79,000 tested, about 15% had one in any assay. The source made the active and inactive calls. Cut-off read from the data, not from the text of the source: active = growth inhibition above about 70%; inactive = the rest.
Listed next: entries and their corresponding growth inhibition.

{"item.smiles": "O=C1C=CC(=O)N1Cc1ccccc1", "growth inhibition": "98% (active)"}

Report growth inhibition for [O-][n+]1onc2ncccc21 please.
34% (inactive)

Report growth inhibition for CCCCCCCCCCCCCC/[N+]([O-])=C/c1ccc([N+](=O)[O-])o1 please.
7% (inactive)

Report growth inhibition for O=C(Nc1cccc(NC(=O)c2cc(=O)c3ccccc3o2)n1)c1cc(=O)c2ccccc2o1 please.
34% (inactive)

Report growth inhibition for CN1COc2c(Cl)cc(Cl)cc2C1 please.
-3% (inactive)

Report growth inhibition for Clc1cc[c]([Sn]([O][Sn]([c]2ccc(Cl)cc2)([c]2ccc(Cl)cc2)[c]2ccc(Cl)cc2)([c]2ccc(Cl)cc2)[c]2ccc(Cl)cc2)cc1 please.
98% (active)
